Source: the supplement of paper PMC9428881

Reported background-corrected fluorescence values for a set of sequences
- test_name: background-corrected fluorescence of 3'-dye-labeled ssDNA relative to brightest sequence (3'-GCGCG) (fraction); higher = brighter dye fluorescence (less quenching)
- settings: dye: Cy5 (3' terminal)
Just the number, please, no unit attached.

For orientation, consider the following solved cases.
TTTTTTGATCATCATGATCATTTTTTTTTTTTTTTCGGCG [GCGGC]
0.611
TTTTTTGAGCATCATCAGCATTTTTTTTTTTTTTTCTGGT [TGGTC]
0.557
TTTTTTGATGATGCTCATGATTTTTTTTTTTTTTTCCAGC [CGACC]
0.395
TTTTTTCATGATCAGCATGCTTTTTTTTTTTTTTTGCGTA [ATGCG]
0.466

// query background-corrected fluorescence value for entry TTTTTTCATGCTGCTCATCATTTTTTTTTTTTTTTGAAGG [GGAAG]
0.512

Now try TTTTTGCATCAGCAGCATCATTTTTTTTTTTTTTTTGTTG [GTTGT] .
0.373

Now try TTTTTGCATCATGCTGCTGATTTTTTTTTTTTTTTTGAAC [CAAGT] .
0.345

Now try TTTTTTGCGCATCATGATGCTTTTTTTTTTTTTTTATGCA [ACGTA] .
0.46

Now try TTTTTTCAGCAGCATCAGCATTTTTTTTTTTTTTTGTTGT .
0.494

Now try TTTTTTGATGATCATGCTGATTTTTTTTTTTTTTTCCGAC [CAGCC] .
0.374

Now try TTTTTTGATCATGCTGCTGCTTTTTTTTTTTTTTTCGAAA [AAAGC] .
0.475

Now try TTTTTTGATGATCATCATGATTTTTTTTTTTTTTTCCGGC [CGGCC] .
0.511

Now try TTTTTTCATGCGCATCATGCTTTTTTTTTTTTTTTGATGA [AGTAG] .
0.518

###

- test_name: background-corrected fluorescence of 3'-dye-labeled ssDNA relative to brightest sequence (3'-GCGCG) (fraction); higher = brighter dye fluorescence (less quenching)
- settings: dye: Cy3 (3' terminal)
reported_metric: background-corrected fluorescence
Just the number, please, no unit attached.

For orientation, consider the following solved cases.
TTTTTTGCGCATCATGCGCATTTTTTTTTTTTTTTATGAT [TAGTA]
0.615
TTTTTTCATGATCAGCATGCTTTTTTTTTTTTTTTGCGTA [ATGCG]
0.604
TTTTTTGCTGATGATCATGCTTTTTTTTTTTTTTTACCGA [AGCCA]
0.601

// query background-corrected fluorescence value for entry TTTTTTGATCATGCTGCGCATTTTTTTTTTTTTTTCGAAT [TAAGC]
0.599

Now try TTTTTTGATCATGCTGAGCATTTTTTTTTTTTTTTCGACT [TCAGC] .
0.488

###

- test_name: background-corrected fluorescence of 3'-dye-labeled ssDNA relative to brightest sequence (3'-GCGCG) (fraction); higher = brighter dye fluorescence (less quenching)
- settings: dye: Cy5 (3' terminal)
reported_metric: background-corrected fluorescence
Just the number, please, no unit attached.

For orientation, consider the following solved cases.
TTTTTTGCTGCGCATGATCATTTTTTTTTTTTTTTAATCG [GCTAA]
0.399
TTTTTTGATGCTGCTGCGCATTTTTTTTTTTTTTTCAAAT [TAAAC]
0.41
TTTTTGCAGCATGCGCAGCATTTTTTTTTTTTTTTTTATT
0.403
TTTTTGCAGCATGCTGCGCATTTTTTTTTTTTTTTTTAAT [TAATT]
0.412

Okay, next one:
// query background-corrected fluorescence value for entry TTTTTTGATCAGCATCATGATTTTTTTTTTTTTTTCGTGC
0.397
